B1: EEHEE_rd4_0763 (parent)
chain: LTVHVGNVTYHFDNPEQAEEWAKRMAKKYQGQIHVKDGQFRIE

variants of: B1; test: folding stability dG (cDNA display proteolysis); higher = more stable; conditions: PBS, room temperature
folding stability dG of 1 kcal/mol or higher: criterion met. Under 1 kcal/mol: criterion not met.

biosequence: LTVHVGNVTQHFDNPEQAEEWAKRMAKKYQGQIHVKDGQFRIE [Y10Q]
class-assignment: criterion not met
--
biosequence: LTVHVGNVTYHFDNPEQAEEWAKKMAKKYQGQIHVKDGQFRIE [R24K]
class-assignment: criterion met
--
biosequence: LTVHVGNVTYHFDNPEQAEEWAKRMAKKYQSQIHVKDGQFRIE [G31S]
class-assignment: criterion met
--
biosequence: LTVHVGNVTYHFDNMEQAEEWAKRMAKKYQGQIHVKDGQFRIE [P15M]
class-assignment: criterion met
--
biosequence: LTVHVGNVTYHFDNPEQAEEEAKRMAKKYQGQIHVKDGQFRIE [W21E]
class-assignment: criterion not met
--
biosequence: LTVHVGNVTYHFLNPEQAEEWAKRMAKKYQGQIHVKDGQFRIE [D13L]
class-assignment: criterion met

Answer whether folding stability dG of LTVHVGNVTYHFDNREQAEEWAKRMAKKYQGQIHVKDGQFRIE [P15R] is greater than or equal to 1 kcal/mol.
criterion met

Answer whether folding stability dG of LTVHVGNVTYHFDNPYQAEEWAKRMAKKYQGQIHVKDGQFRIE [E16Y] is greater than or equal to 1 kcal/mol.
criterion met

These entries and their values trace back to the MegaScale stability set (Tsuboyama et al. 2023).
